target: T1, TRCW5 antigen (CD3δε-Fc-Avi) (biotinylated (site not stated)); experiment: binding after heat
T1 construct: also called recombinant CD3
T1 sequence (chain, as listed by the source mutant limits assumed): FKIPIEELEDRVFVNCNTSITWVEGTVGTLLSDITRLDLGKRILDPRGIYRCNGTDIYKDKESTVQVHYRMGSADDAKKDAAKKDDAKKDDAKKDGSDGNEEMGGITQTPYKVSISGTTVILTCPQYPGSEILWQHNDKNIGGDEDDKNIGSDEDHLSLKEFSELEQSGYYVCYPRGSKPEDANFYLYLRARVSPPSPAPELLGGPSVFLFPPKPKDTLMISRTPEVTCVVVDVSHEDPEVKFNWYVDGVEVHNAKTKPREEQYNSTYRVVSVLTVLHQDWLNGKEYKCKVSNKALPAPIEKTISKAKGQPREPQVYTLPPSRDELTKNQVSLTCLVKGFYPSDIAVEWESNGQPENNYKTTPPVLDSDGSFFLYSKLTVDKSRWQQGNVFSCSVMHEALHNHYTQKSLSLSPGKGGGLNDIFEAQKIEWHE
RESULT_TYPE: % Retained 65° C.

Solved cases below.
CD3B2089 N106I (scFv) scFv: QVQLVQSGAEVKKPGSSVKVSCKASGYTFTRSTMHWVRQAPGQGLEWMGYINPSSAYTNYAQKFQGRVTLTADKSTSTAYMELSSLRSEDTAVYYCASPQVHYDYIGFPYWGQGTLVTVSSGGSEGKSSGSGSESKSTGGSEIVLTQSPATLSASPGERVTLSCSASSSVSYMNWYQQKPGQAPRRWIYDSSKLASGVPARFSGSGSGRDYTLTISSLEPEDFAVYYCQQWSRNPPTFGGGTKVEIK | 0.9%
CD3B2051 N106S (scFv) scFv: QVQLVQSGAEVKKPGSSVKVSCKASGYTFTRSTMHWVKQAPGQGLEWMGYINPSSAYTNYNQKFQGRVTLTADKSTSTAYMELSSLRSEDTAVYYCASPQVHYDYSGFPYWGQGTLVTVSSGGSEGKSSGSGSESKSTGGSEIVLTQSPATLSASPGERVTLSCSASSSVSYMNWYQQKPGQAPRRLIYDSSKLASGVPARFSGSGSGRDYTLTISSLEPEDFAVYYCQQWSRNPPTFGGGTKVEIK | 1.5%
CD3B2030 N106L (scFv) scFv: QVQLVQSGAEVKKPGSSVKVSCKASGYTFTRSTMHWVKQAPGQGLEWIGYINPSSAYTNYNQKFQGRVTLTADKSTSTAYMELSSLRSEDTAVYYCASPQVHYDYLGFPYWGQGTLVTVSSGGSEGKSSGSGSESKSTGGSEIVLTQSPATLSASPGERVTLSCSASSSVSYMNWYQQKPGQAPRRWIYDSSKLASGVPARFSGSGSGRDYTLTISSLEPEDFAVYYCQQWSRNPPTFGGGTKVEIK | 25.6%

The reported % Retained 65° C. of the binder CD3B2030 (scFv) scFv: QVQLVQSGAEVKKPGSSVKVSCKASGYTFTRSTMHWVKQAPGQGLEWIGYINPSSAYTNYNQKFQGRVTLTADKSTSTAYMELSSLRSEDTAVYYCASPQVHYDYNGFPYWGQGTLVTVSSGGSEGKSSGSGSESKSTGGSEIVLTQSPATLSASPGERVTLSCSASSSVSYMNWYQQKPGQAPRRWIYDSSKLASGVPARFSGSGSGRDYTLTISSLEPEDFAVYYCQQWSRNPPTFGGGTKVEIK was 41.3%

The binder CD3B2089 N106S (scFv) scFv: QVQLVQSGAEVKKPGSSVKVSCKASGYTFTRSTMHWVRQAPGQGLEWMGYINPSSAYTNYAQKFQGRVTLTADKSTSTAYMELSSLRSEDTAVYYCASPQVHYDYSGFPYWGQGTLVTVSSGGSEGKSSGSGSESKSTGGSEIVLTQSPATLSASPGERVTLSCSASSSVSYMNWYQQKPGQAPRRWIYDSSKLASGVPARFSGSGSGRDYTLTISSLEPEDFAVYYCQQWSRNPPTFGGGTKVEIK showed % Retained 65° C. equal to 5.4%
